- measurementDescription: In vitro inhibitory concentration against Echovirus 6
- Format: functional, Viruses
reportedMetric: IC50 (nM)

>>> valueobserved("N#Cc1ccc2c(c1)CCC(c1ccc(Cl)cc1)O2 (stereo unspecified)")
480

---

- measurementDescription: Inhibitory concentration against Echovirus 9
- Type: functional, Viruses
reportedMetric: IC50 (nM)

>>> valueobserved("CCc1nc(-c2ccc(OCCC(C)CCN3CCN(c4ccncc4)C3=O)cc2)no1 (centres undefined)")
500
>>> valueobserved("CC(CCOc1ccc(-c2ccc(Cl)cc2)cc1)CCN1CCN(c2ccncc2)C1=O (centres undefined)")
2630
>>> valueobserved("O=C1N(CCCCCOc2ccc(-c3ccc(Cl)cc3)cc2)CCN1c1ccncc1")
1310
>>> valueobserved("CCn1nnc(-c2ccc(OCCC(C)CCN3CCN(c4ccncc4)C3=O)cc2)n1 (centres undefined)")
280

---

- Test system: Coxsackievirus
- measurementDescription: Inhibitory concentration against Coxsackievirus B1
- Format: functional, organism-based, Viruses
pIC50: −log10 of the molar value.
The compounds listed here are annotated with their pIC50.
reportedMetric: pIC50

>>> valueobserved("CCc1nc(-c2ccc(OCCC(C)CCN3CCN(c4ccncc4)C3=O)cc2)no1 (centres undefined)")
7.34
>>> valueobserved("CCn1nnc(-c2ccc(OCCC(C)CCN3CCN(c4ccncc4)C3=O)cc2)n1 (centres undefined)")
7.46
>>> valueobserved("CC(CCOc1ccc(-c2ccc(Cl)cc2)cc1)CCN1CCN(c2ccncc2)C1=O (centres undefined)")
5.54

---

- Tested on: Coxsackievirus
- measurementDescription: Inhibitory concentration against Coxsackievirus B6
- Assay type: functional, organism-based, Viruses
reportedMetric: IC50

>>> valueobserved("CC(CCOc1ccc(-c2ccc(Cl)cc2)cc1)CCN1CCN(c2ccncc2)C1=O (centres undefined)")
"> 12.5 µM"
>>> valueobserved("O=C1N(CCCCCOc2ccc(-c3ccc(Cl)cc3)cc2)CCN1c1ccncc1")
"> 12.5 µM"
>>> valueobserved("CCn1nnc(-c2ccc(OCCC(C)CCN3CCN(c4ccncc4)C3=O)cc2)n1 (centres undefined)")
"> 25 µM"
>>> valueobserved("CCc1nc(-c2ccc(OCCC(C)CCN3CCN(c4ccncc4)C3=O)cc2)no1 (centres undefined)")
"> 25 µM"

---

- measurementDescription: Cytotoxicity against human rhabdomyosarcoma cells
- Type: cell-based
Quick list: CC50 per entry.
reportedMetric: CC50

>>> valueobserved("CC(C)(CCCOc1ccc(-c2ccc(Cl)cc2)cc1)CN1CCN(c2ccncc2)C1=O")
"20 µM"
>>> valueobserved("O=C1N(Cc2ccc(COc3ccc(-c4ccc(Cl)cc4)cc3)cc2)CCN1c1ccncc1")
"> 1.25 µM"
>>> valueobserved("CC(CCCCN1CCN(c2ccncc2)C1=O)Oc1ccc(-c2ccc(Cl)cc2)cc1 (stereo not given)")
"> 12.5 µM"
>>> valueobserved("O=C1N(CCC(CCOc2ccc(-c3ccc(Cl)cc3)cc2)Cc2ccccc2)CCN1c1ccncc1 (stereo not given)")
"> 10 µM"
>>> valueobserved("O=C1N(CCC(CCOc2ccc(-c3ccc(Cl)cc3)cc2)C(F)(F)F)CCN1c1ccncc1 (stereo not given)")
"> 12.5 µM"

---

- Test system: Enterovirus
- measurementDescription: In vitro inhibitory concentration against human enterovirus EV71-4643 strain
- Assay type: functional, organism-based, Enterovirus A71
We begin with a simple list: items and their reported IC50.
reportedMetric: IC50 (nM)

>>> valueobserved("Cc1nc(-c2ccc(OCCC(C)CCN3CCN(c4ccncc4)C3=O)cc2)no1 (configuration not stated)")
0.9
>>> valueobserved("CCCC(CCOc1ccc(-c2ccc(Cl)cc2)cc1)CCN1CCN(c2ccncc2)C1=O (configuration not stated)")
960
>>> valueobserved("CC(CCOc1ccc(-c2noc(C(F)(F)F)n2)cc1)CCN1CCN(c2ccncc2)C1=O (configuration not stated)")
1.4
>>> valueobserved("O=C1N(CCCCCOc2ccc(-c3ccc(Cl)cc3)cc2)CCN1c1ccncc1")
38
>>> valueobserved("CC(CCCCOc1ccc(-c2ccc(Cl)cc2)cc1)N1CCN(c2ccncc2)C1=O (configuration not stated)")
36
>>> valueobserved("CC(C)(CCCOc1ccc(-c2ccc(Cl)cc2)cc1)CN1CCN(c2ccncc2)C1=O")
94
>>> valueobserved("CC(C)C(CCOc1ccc(-c2ccc(Cl)cc2)cc1)CCN1CCN(c2ccncc2)C1=O (configuration not stated)")
2110
>>> valueobserved("CN(CCOc1ccc(-c2ccc(Cl)cc2)cc1)CCN1CCN(c2ccncc2)C1=O")
400
>>> valueobserved("Cc1cc(COc2ccc(-c3ccc(Cl)cc3)cc2)cc(CN2CCN(c3ccncc3)C2=O)c1")
22900
>>> valueobserved("CC(C)(CCOc1ccc(-c2ccc(Cl)cc2)cc1)CCN1CCN(c2ccncc2)C1=O")
41
>>> valueobserved("O=C1N(CCOCCOc2ccc(-c3ccc(Cl)cc3)cc2)CCN1c1ccncc1")
830
>>> valueobserved("CCC(CCOc1ccc(-c2ccc(Cl)cc2)cc1)CCN1CCN(c2ccncc2)C1=O (configuration not stated)")
170
>>> valueobserved("CCc1nc(-c2ccc(OCCC(C)CCN3CCN(c4ccncc4)C3=O)cc2)no1 (configuration not stated)")
0.5
>>> valueobserved("CCCc1nc(-c2ccc(OCCC(C)CCN3CCN(c4ccncc4)C3=O)cc2)no1 (configuration not stated)")
19
>>> valueobserved("O=C1N(Cc2cccc(COc3ccc(-c4ccc(Cl)cc4)cc3)c2)CCN1c1ccncc1")
160
>>> valueobserved("CC(CCCCN1CCN(c2ccncc2)C1=O)Oc1ccc(-c2ccc(Cl)cc2)cc1 (configuration not stated)")
53
>>> valueobserved("CC(CCCOc1ccc(-c2ccc(Cl)cc2)cc1)CN1CCN(c2ccncc2)C1=O (configuration not stated)")
5
>>> valueobserved("O=C1N(CCC(CCOc2ccc(-c3ccc(Cl)cc3)cc2)C(F)(F)F)CCN1c1ccncc1 (configuration not stated)")
740
>>> valueobserved("CC(CCCN1CCN(c2ccncc2)C1=O)COc1ccc(-c2ccc(Cl)cc2)cc1 (configuration not stated)")
15
>>> valueobserved("CC(C)(CCCN1CCN(c2ccncc2)C1=O)COc1ccc(-c2ccc(Cl)cc2)cc1")
130
>>> valueobserved("CC(CCOc1ccc(-c2nnn(C)n2)cc1)CCN1CCN(c2ccncc2)C1=O (configuration not stated)")
2.8

---

- System: Enterovirus
- measurementDescription: In vitro inhibitory concentration against human enterovirus EV71
- Type: functional, organism-based, Viruses
reportedMetric: IC50 (nM)

>>> valueobserved("N#Cc1ccc2c(c1)CCC(c1ccc(Cl)cc1)O2 (configuration not stated)")
450
>>> valueobserved("c1ccc(C2COc3ccc(C4=NCCO4)cc3C2)cc1 (configuration not stated)")
4560

---

- Tested on: Enterovirus
- measurementDescription: Inhibitory concentration against human enterovirus EV71 (2231) genotype C
- Format: functional, organism-based, Viruses
We begin with a simple list: items and their reported IC50.
reportedMetric: IC50 (nM)

>>> valueobserved("O=C1N(CCCCCOc2ccc(-c3ccc(Cl)cc3)cc2)CCN1c1ccncc1")
76
>>> valueobserved("CCn1nnc(-c2ccc(OCCC(C)CCN3CCN(c4ccncc4)C3=O)cc2)n1 (centres undefined)")
14
>>> valueobserved("CCc1nc(-c2ccc(OCCC(C)CCN3CCN(c4ccncc4)C3=O)cc2)no1 (centres undefined)")
15
>>> valueobserved("CC(CCOc1ccc(-c2ccc(Cl)cc2)cc1)CCN1CCN(c2ccncc2)C1=O (centres undefined)")
38

---

- Test system: Enterovirus
- measurementDescription: In vitro inhibitory concentration against human enterovirus EV71-4643 strain
- Format: functional, organism-based, Enterovirus A71
pIC50: −log10 of the molar value.
reportedMetric: pIC50

>>> valueobserved("CC(CCOc1ccc(-c2ccc(Cl)cc2)cc1)CCN1CCN(c2ccncc2)C1=O (stereo not given)")
8.03
>>> valueobserved("CCn1nnc(-c2ccc(OCCC(C)CCN3CCN(c4ccncc4)C3=O)cc2)n1 (stereo not given)")
9.05

---

- Test system: Enterovirus
- measurementDescription: Inhibitory concentration against human enterovirus EV71 (4643) genotype C
- Type: functional, organism-based, Viruses
pIC50: −log10 of the molar value.
reportedMetric: pIC50

>>> valueobserved("CCn1nnc(-c2ccc(OCCC(C)CCN3CCN(c4ccncc4)C3=O)cc2)n1 (centres undefined)")
9.05
>>> valueobserved("CC(CCOc1ccc(-c2ccc(Cl)cc2)cc1)CCN1CCN(c2ccncc2)C1=O (centres undefined)")
8.03
>>> valueobserved("CCc1nc(-c2ccc(OCCC(C)CCN3CCN(c4ccncc4)C3=O)cc2)no1 (centres undefined)")
9.30
>>> valueobserved("O=C1N(CCCCCOc2ccc(-c3ccc(Cl)cc3)cc2)CCN1c1ccncc1")
7.42

---

The compounds listed here are annotated with their CC50.
- measurementDescription: Cytotoxicity against human rhabdomyosarcoma cells
- Type: cell-based
reportedMetric: CC50 (µM)

>>> valueobserved("O=C1N(CCCCCOc2ccc(-c3ccc(Cl)cc3)cc2)CCN1c1ccncc1")
6.25
>>> valueobserved("CC(CCCCOc1ccc(-c2ccc(Cl)cc2)cc1)N1CCN(c2ccncc2)C1=O (stereo not given)")
12.5
